- subject-of-test: Regulator of G-protein signaling 4 (Homo sapiens)
- protocol-notes: blockers of RGS4 function in M3R calcium signaling – cell-based, HEK293 M3R inducible RGS4, calcium flux, primary screen (AID 463165);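 note: RGS4 expression induced by doxycycline in cells with stable M3 receptor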
- condition-description: Fluo-4 calcium flux, at 10 µM, triggered by carbachol at its EC20
Out of some 310,000 compounds screened, about 1,400 (0.45%) were called active.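 Rule for the calls: active = B-score, a plate-corrected calcium signal, over three deviations above library mean, with baseline fluorescence within five deviations of library mean; inactive = the rest.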 Only a selection was taken, and actives are over-represented in it overall.
Outcome codes: active, inactive

1) CCc1ccc(N(C(=O)c2csnn2)C(C(=O)NC2CCCCC2)c2ccncc2)cc1 (stereo unspecified)    inactive
2) O=[N+]([O-])c1cc(Cl)cc(/C=N/NC(=S)Nc2cc(S(=O)(=O)N3CCOCC3)ccc2Cl)c1O    active
3) COC(=O)c1c(C(=O)OC)c2n(c1C)CCS2    inactive
4) CCc1ccc(C2C(C#N)=C(N)N(N3CCOCC3)C3=C2C(=O)CC(C)(C)C3)s1 (stereo unspecified)    active
5) C=CCSc1nc2c(c(=O)[nH]1)C(C(C)C)C(C#N)=C(N)O2 (stereo unspecified)    active
6) O=C(CNC(=O)[C@@H]1Cc2ccccc2CN1)NC1CCCCC1    inactive
7) Clc1ccc(CN2CCN(/N=C/c3cccnc3)CC2)cc1    inactive
8) Cc1noc(C)c1S(=O)(=O)Nc1cc(C(F)(F)F)ccc1N1CCOCC1    inactive
9) Cc1csc(NC(=O)C2=COCCO2)n1    inactive
10) O=C(NC(=S)Nc1ccc(S(=O)(=O)N2CCOCC2)cc1)c1ccccc1[N+](=O)[O-]    inactive
11) C=C(C)C(=O)O[C@H]1C/C(C)=C\C(=O)/C=C(\C)[C@H](O)[C@@H]2OC(=O)C(=C)[C@@H]21    active
12) Cc1nc(-c2ccccc2)sc1C(=O)/C=C/N(C)C    inactive
13) Cc1ccc(S(=O)(=O)N(CC(=O)NN=C2CCN(C)CC2)c2ccc(F)cc2)cc1    inactive
14) Cc1cc2c(c(=O)n1C)C(C(C)C)C(C#N)=C(N)O2 (stereo unspecified)    inactive
15) O=S(=O)(Cc1cc(Sc2ccccc2)nc(-c2ccccc2)n1)c1ccccc1    inactive
16) O=C(Oc1c(-c2ccco2)oc2ccccc2c1=O)c1cccnc1    inactive
17) COc1cc(/C=N/NC(=O)c2cccnc2)ccc1OC(=O)c1cccc(Br)c1    inactive
18) COc1ccc(C2C(C#N)=C(/N=C/N3CCOCC3)OC3=C2C(=O)CC(C)(C)C3)cc1OC (stereo unspecified)    inactive
19) O=C(CSC1=NS(=O)(=O)c2cc(F)ccc2N1)Nc1ccccc1F    inactive
20) Cc1nc(-c2ccccc2)sc1C(=O)/C=C/c1ccccc1    active
21) CC(OC(=O)CCc1nc(=O)c2ccccc2n1C)C(=O)NCc1ccc2c(c1)OCO2 (stereo unspecified)    inactive
